measured_on: M1 muscarinic receptor (Homo sapiens, UniProt P11229)
Construct: expressed in transfected cells; host or cells: CHO (M1-CHO)
Sequence (P11229 whole entry): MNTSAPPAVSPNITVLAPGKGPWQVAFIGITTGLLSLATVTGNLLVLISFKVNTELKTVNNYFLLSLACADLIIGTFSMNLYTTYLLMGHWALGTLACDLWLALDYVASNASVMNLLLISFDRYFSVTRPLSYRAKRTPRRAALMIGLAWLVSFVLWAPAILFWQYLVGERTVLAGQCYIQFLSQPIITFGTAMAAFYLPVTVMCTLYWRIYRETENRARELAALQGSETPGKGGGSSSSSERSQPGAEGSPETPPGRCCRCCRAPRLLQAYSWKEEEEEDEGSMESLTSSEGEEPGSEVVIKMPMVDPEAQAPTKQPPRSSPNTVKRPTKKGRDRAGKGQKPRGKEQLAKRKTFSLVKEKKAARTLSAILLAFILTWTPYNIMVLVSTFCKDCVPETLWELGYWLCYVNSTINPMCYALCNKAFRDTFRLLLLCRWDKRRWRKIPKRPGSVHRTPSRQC
experimental_details: Functional mobilization of intracellular calcium (FLIPR), M1-CHO cells
Assay type: cell-based
test_context: 100% efficacy is the maximum response obtained using Carbachol as a control
property: Emax

Query: Which Emax is listed for CC(=O)N1Cc2ccccc2C2(CCN(CC3CCN(C(=O)OC4CCCC4)CC3)CC2)C1 [compound 252] ?
Reply: < 25%

Query: Also, CCOC(=O)N1C2CCC1CC(N1CCC3(CC1)CN(C(=O)OC1CCCC1)Cc1ccccc13)C2 (stereo not drawn) [compound 14] please.
Reply: 25 to 100%

Query: Also, CCOC(=O)N1CCC(CN2CCC3(CC2)CN(C(=O)c2cc4ccccc4s2)Cc2ccccc23)CC1 [compound 80] please.
Reply: 25 to 100%

Query: Also, CCOC(=O)N1CCC(N2CCC3(CC2)CN(C(=O)N2CCCC2)Cc2ccccc23)CC1 [compound 110] please.
Reply: 25 to 100%

Query: Also, CC(=O)N1Cc2ccccc2C2(CCN(Cc3sccc3C)CC2)C1 [compound 142] please.
Reply: < 25%

Query: Also, CCOC(=O)N1CCC(N2CCC3(CC2)CN(CCC(C)C)Cc2ccccc23)CC1 [compound 313] please.
Reply: > 100%

Query: Also, CCOC(=O)N1CCC(N2CCC3(CC2)CN(C(=O)Nc2ccccc2)Cc2ccccc23)CC1 [compound 16] please.
Reply: 25 to 100%

Query: Also, CCOC(=O)N1C2CCC1CC(N1CCC3(CC1)CN(S(=O)(=O)c1ccc(OC(F)(F)F)cc1)Cc1ccccc13)C2 (stereo not drawn) [compound 67] please.
Reply: 25 to 100%

Query: Also, CCOC(=O)N1CCC(N2CCC3(CC2)CN(Cc2ccccc2)Cc2ccccc23)CC1 [compound 167] please.
Reply: 25 to 100%

Query: Also, CCNC(=O)N1Cc2ccccc2C2(CCN(CC3CCN(C(=O)OCC)CC3)CC2)C1 [compound 91] please.
Reply: 25 to 100%

Query: Also, CCOC(=O)N1CCC(CN2CCC3(CC2)CN(C(=O)OC)Cc2ccccc23)CC1 [compound 128] please.
Reply: 25 to 100%

Query: Also, CCOC(=O)N1CCC(N2CCC3(CC2)CN(C(=O)N(CC)CC)Cc2ccccc23)CC1 [compound 242] please.
Reply: 25 to 100%

// provenance: patent US7863449B2
